Provenance of the data: patent US9516880B2

System: Septoria tritici
procedure-summary: In vivo protective test, Septoria tritici (blotch in wheat)
condition-notes: application rate 500 ppm, wheat plants, evaluation 21-28 days after inoculation, 0% = control, 100% = no infection

| molecule | unit-annotation | Efficacy [%] |
| --- | --- | --- |
| COC1(C(=O)NCc2ccc(Cl)nc2)CC(c2cc(Cl)cc(Cl)c2)=NO1 (centres unmarked) | % | 100 |
| COCC(C)NC(=O)C1(OC)CC(c2cc(Cl)cc(Cl)c2)=NO1 (single isomer, unassigned) [1.20-19 D2] | % | 100 |
| COC1(C(=O)NCc2ccc(Cl)nc2)CC(c2cc(F)cc(F)c2)=NO1 (centres unmarked) | % | 100 |
| CCOC(=O)CC(C)NC(=O)C1(OC)CC(c2cccc(CC)c2)=NO1 (centres unmarked) | % | 75 |
| CCOC1(C(=O)NCc2cnn(CC)c2)CC(c2cc(F)cc(F)c2)=NO1 (centres unmarked) | % | 83 |
| COCC(C)NC(=O)C1(OC)CC(c2cc(F)cc(F)c2)=NO1 (single isomer, unassigned) [1.11-19 D1] | % | 100 |
| COc1cccc(C2=NOC(OC)(C(=O)NCc3ccc(Cl)nc3)C2)c1 (centres unmarked) | % | 100 |
| CCn1cc(CNC(=O)C2(OC)CC(c3cccc(Cl)c3)=NO2)cn1 (centres unmarked) | % | 100 |
